endpointName: melting point (°C)

# smilesText, endpointName, experimentalValue
records = [
    ("Cc1nn(C)c(F)c1C(=O)Nc1ccccc1-c1ccccc1C(F)(F)F", "melting point", 103),
    ("Cc1ccccc1-c1ccccc1NC(=O)c1c(C)nn(C)c1F", "melting point", 100),
    ("Cc1cccc(NC(=O)c2c(C)nn(C)c2F)c1-c1ccc(Cl)cc1", "melting point", 177),
    ("Cc1nn(C)c(F)c1C(=O)Nc1ccccc1-c1ccccc1F", "melting point", 113),
    ("Cc1nn(C)c(F)c1C(=O)Nc1ccccc1-c1cccc(C(F)(F)F)c1", "melting point", 116),
    ("Cc1nn(C)c(F)c1C(=O)Nc1ccccc1-c1ccc(Br)cc1", "melting point", 127),
    ("Cc1cccc(NC(=O)c2c(C)nn(C)c2F)c1-c1ccccc1", "melting point", 144),
]
